# TGI per record follows
System: OVCAR-4 ovarian
Experiment: NCI tumour cell line growth inhibition, 48 h

TGI of O=C1CC(c2cccc([N+](=O)[O-])c2)C2(C(=O)NC(=S)NC2=O)C(c2cccc([N+](=O)[O-])c2)C1 (stereo unspecified) on OVCAR-4 ovarian?
> 100 µM

What value of TGI on OVCAR-4 ovarian does CNCC(SC)c1ccc(O)c(O)c1 (stereo unspecified) have?
32.5 µM

# returns recorded TGI (system: OVCAR-4 ovarian) for "CSCc1ncc(-c2ccc(C(F)(F)F)cc2)c(NC2CCCCCC2)n1"
> 10 µM

Recorded TGI for "COC(=O)c1c(CC(=O)OC(C)C)cc2n(c1=O)Cc1c-2nc2ccccc2c1OC" with OVCAR-4 ovarian, please?
> 100 µM

// map COC1CCC(CO)OO1 (stereo unspecified) to recorded TGI (system: OVCAR-4 ovarian)
> 100 µM

Provide value of TGI for this record tested with OVCAR-4 ovarian: "Cn1cc(-c2csc(-c3ccc(Cl)cc3)n2)c2cccnc21"
60.8 µM

Hi! What's the reported TGI for "C/C(N=NS(=O)(=O)c1c(C)cc(C)cc1C)=C1\C=CC=CN1O" on OVCAR-4 ovarian?
> 100 µM

Give the reported TGI for CC(C)C(Br)C(=O)NCC(=O)O (stereo unspecified) (system: OVCAR-4 ovarian).
> 100 µM

Give OVCAR-4 ovarian TGI for CC(C)(C)N=C1C(=O)C2(C)CCC1C2(C)C (stereo unspecified)
> 100 µM

Kindly state the measured TGI obtained for "C=CCN1C(=O)C[C@H](Cc2ccccc2)NC(=O)C[C@H](Cc2ccccc2)N(CC=C)C(=O)C[C@H](Cc2ccccc2)NC(=O)C[C@@H]1Cc1ccccc1" with OVCAR-4 ovarian.
72 µM

Hello, I am looking for reported TGI with OVCAR-4 ovarian for CC(=O)N1CCOC12N=NC(C)(C)O2 (stereo unspecified) . Could you help?
> 100 µM
